Tested on: CCRIS mutagenicity, Ames/micronucleus/aberration tests
Assay: CCRIS mutagenicity studies
Details: Test System: AMES SALMONELLA TYPHIMURIUM; Strain/Indicator: TA1537; Metabolic Activation: RAT LIVER S-9, PHENOBARBITAL AND BETA-NAPHTHOFLAVONE; Method: PREINCUBATION
Calls of active or inactive are those of the source. No rule for the calls is given here.
readout_type: mutagenic call

1) C1CC[C@H]2O[C@H]2C1
inactive; negative
2) O=[N+]([O-])c1ccc(/C=C/c2ccc([N+](=O)[O-])cc2S(=O)(=O)O)c(S(=O)(=O)O)c1
inactive; negative
3) OCCO
inactive; negative
4) O=c1n(Cl)c(=O)n(Cl)c(=O)n1Cl
inactive; negative

Hey, quick one: what's mutagenic call for each of these?
1. Sc1ccccc1
2. O=CC=O
3. Nc1cc(S(=O)(=O)O)c2cccc(S(=O)(=O)O)c2c1
4. CCN1CCNC(=O)C1=O
5. COC(=O)CC(=O)OC
6. [Cl][Mn][Cl]

Result:
["inactive; negative", "inactive; negative", "inactive; negative", "inactive; negative", "inactive; negative", "inactive; negative"]
